- Test system: p-IKKα levels in L363 (NIK translocated multiple myeloma) cells
- Experiment: Effect of compounds on p-IKKα levels in L363 cells (AlphaLISA SureFire Ultra)
- Assay type: cell-based
- Experimental setup: Homo sapiens, L-363; L363 cells, BAFF stimulated, MG132, 6 h; average of values; read-out: Assay 2 IC50
Experimental readout: IC50

IC50 measured on CN1CC[C@@](O)(c2cc(-c3cccc(-c4ccc5ncn(C)c5c4)c3)no2)C1=O = > 501 nM

Sure, the documented IC50 for CN1CC[C@@](O)(c2cc(-c3cccc(-c4cn5ccnc5cn4)c3)no2)C1=O is > 501 nM

IC50 measured on CN1CC[C@@](O)(c2cc(-c3cccc(-c4cc5[nH]ncc5cn4)c3)no2)C1=O = > 501 nM

The compound listed as CN1CC[C@@](O)(c2cc(-c3cccc(-c4ccn5ncccc45)c3)no2)C1=O has a reported IC50 of > 501 nM

Notebook: CN1CC[C@@](O)(c2cc(-c3ccnc(-c4cccc(C(N)=O)n4)c3)no2)C1=O , IC50 read as > 501 nM

Recorded IC50 (compound COc1cc(-c2cccc(-c3cc([C@]4(O)CCN(C)C4=O)on3)c2)nc2[nH]ncc12 ): > 501 nM

response.value for Cc1cc(C(N)=O)nc(-c2cccc(-c3cc([C@]4(O)CCN(C)C4=O)on3)c2)c1 (field: IC50) = 100 to 500 nM

The recorded IC50 for entry CN1CC[C@@](O)(c2cc(-c3cccc(-c4nc(C(N)=O)c5n4CCN(CCC(F)(F)F)C5)c3)no2)C1=O equals > 501 nM

---

- System: p-IKKα levels in L363 (NIK translocated multiple myeloma) cells
- Experiment: Effect of compounds on p-IKKα levels in L363 cells (AlphaLISA SureFire Ultra)
- Type: cell-based
- Experimental setup: Homo sapiens, L-363; L363 cells, BAFF stimulated, MG132, 6 h; average of values; read-out: Assay 2 IC50
Experimental readout: IC50

Consider CCc1sc(-c2cccc(-c3cc([C@]4(O)CCN(C)C4=O)on3)c2)nc1C(N)=O [Example 218] . Its measured IC50 is 100 to 500 nM

The reported IC50 of the molecule Cc1cn2cc(-c3cccc(-c4cc([C@]5(O)CCN(C)C5=O)on4)c3)ccc2n1 [Example 79] was > 501 nM

Recorded result, CN1CC[C@@](O)(c2cc(-c3cccc(-c4ncnc5sccc45)c3)no2)C1=O [Example 72] , IC50: > 501 nM

// COc1cc(-c2cc(-c3cc([C@]4(O)CCN(C)C4=O)on3)c(F)cc2F)nc2c(N)ncnc12 [Example 113] : IC50 value = > 501 nM

# IC50 of Cc1n[nH]c(C)c1Nc1cnc(-c2cccc(-c3cc([C@]4(O)CCN(C)C4=O)on3)c2)nc1C(N)=O [Example 142] = 100 to 500 nM

// [2H]c1nc(N)c2nc(-c3cccc(-c4nc([C@]5(O)CCN(C)C5=O)cs4)c3)ccc2n1 (single isomer, unassigned) [Example 33] : IC50 value = > 501 nM

Entry CN1CC[C@@](O)(c2cc(-c3cccc(-c4cc5cn[nH]c5c(C(N)=O)n4)c3)no2)C1=O [Example 143] — recorded IC50 = < 100 nM

---

- Measurement target: Recombinant Human NF-Kappab-Inducing Kinase (NIK/MAP3K14) (Homo sapiens, UniProt Q99558)
- Sequence (Q99558 whole entry): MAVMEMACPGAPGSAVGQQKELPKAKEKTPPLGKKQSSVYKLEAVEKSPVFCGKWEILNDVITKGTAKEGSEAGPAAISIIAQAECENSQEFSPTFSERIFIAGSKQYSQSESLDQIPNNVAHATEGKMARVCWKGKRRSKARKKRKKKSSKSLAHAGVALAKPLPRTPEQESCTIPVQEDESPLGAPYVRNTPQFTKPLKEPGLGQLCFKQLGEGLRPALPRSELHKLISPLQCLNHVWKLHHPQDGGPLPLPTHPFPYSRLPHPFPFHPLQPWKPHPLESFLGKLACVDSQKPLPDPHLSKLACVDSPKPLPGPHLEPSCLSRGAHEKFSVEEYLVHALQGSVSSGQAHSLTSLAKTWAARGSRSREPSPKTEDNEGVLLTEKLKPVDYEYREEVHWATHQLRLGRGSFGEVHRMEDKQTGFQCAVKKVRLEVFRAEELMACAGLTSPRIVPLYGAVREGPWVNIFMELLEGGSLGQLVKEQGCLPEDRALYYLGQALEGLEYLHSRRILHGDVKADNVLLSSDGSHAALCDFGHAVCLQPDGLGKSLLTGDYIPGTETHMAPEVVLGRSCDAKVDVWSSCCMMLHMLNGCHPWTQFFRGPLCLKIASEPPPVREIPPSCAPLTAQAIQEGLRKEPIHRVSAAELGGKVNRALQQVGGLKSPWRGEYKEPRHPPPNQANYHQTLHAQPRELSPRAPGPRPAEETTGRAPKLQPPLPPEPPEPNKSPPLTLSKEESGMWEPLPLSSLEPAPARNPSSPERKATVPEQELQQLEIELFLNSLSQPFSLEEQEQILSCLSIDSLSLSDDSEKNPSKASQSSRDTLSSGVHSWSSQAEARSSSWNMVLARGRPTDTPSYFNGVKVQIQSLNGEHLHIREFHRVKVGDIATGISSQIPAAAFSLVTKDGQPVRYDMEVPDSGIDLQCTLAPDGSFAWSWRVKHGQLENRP
- Experiment: Inhibition of auto-phosphorylation of recombinant human NIK/MAP3K14 (AlphaScreen)
- Assay type: biochemical
- Experimental setup: NIK/MAP3K14 auto-phosphorylation, 5 microM ATP, 1 nM enzyme, 2 h at 25° C.; average of values; read-out: Assay 1 IC50
pIC50: −log10 of the molar value.
Experimental readout: pIC50

Summary for this compound, CN1CC[C@@](O)(c2cc(-c3cccc(-c4ccc(N)c(C(N)=O)n4)c3)no2)C1=O : pIC50 is > 7.00

// recorded pIC50 for CN1CC[C@@](O)(c2cc(-c3cccc(-c4nc(C(N)=O)cc(C(F)(F)F)n4)c3)no2)C1=O : > 7.00

Reported pIC50 for COc1cc(-c2cccc(-c3cc([C@]4(O)CCN(C)C4=O)on3)c2)nc2c1cnn2C was > 7.00

Consider CN1CC[C@@](O)(c2cc(-c3cccc(-c4ncc(NCC5COC5)c(C(N)=O)n4)c3)no2)C1=O . Its measured pIC50 is > 7.00

compound COc1cc(-c2cc(-c3cc([C@@]4(O)C(=O)N(C)CC4(F)F)on3)ccc2F)nc2c(N)ncnc12 , pIC50 observed: > 7.00

compound CN1CC[C@@](O)(c2cc(-c3cccc(-c4cn(C)c(C(N)=O)n4)c3)no2)C1=O , pIC50 observed: > 7.00

Form field pIC50, entry CN1CC[C@@](O)(c2cc(-c3cccc(-c4ccc5ncn(C)c5c4)c3)no2)C1=O : < 6.30

Value of pIC50 reported for the compound CN1CC[C@@](O)(c2cc(-c3cc(-c4cc(C5CC5)c(N)c(C(N)=O)n4)ccc3F)no2)C1=O is > 7.00

So for CN1CC[C@@](O)(c2cc(-c3cccc(-c4nc(C(N)=O)c(C5CCC5)s4)c3)no2)C1=O , the logged pIC50 turned out to be > 7.00

CCn1cc(-c2cc(C(N)=O)nc(-c3cccc(-c4cc([C@]5(O)CCN(C)C5=O)on4)c3)c2)c(C)n1 has a reported pIC50 of > 7.00

So, CN1CC[C@@](O)(c2cc(-c3cccc(-c4ccc5c(n4)c(N)nn5C)c3)no2)C1=O ? Its pIC50 was 6.30 to 7.00

The compound identified as Cc1nc(N)c2nc(-c3ccc(-c4cc([C@]5(O)CCN(C)C5=O)on4)o3)ccc2n1 registered its pIC50 at > 7.00

Notebook: CN1CC[C@@](O)(c2cc(-c3cccc(-c4nc5c(c(C(N)=O)n4)CCCC5)c3)no2)C1=O , pIC50 read as > 7.00

What the record says about Cc1cn2cc(-c3cccc(-c4cc([C@]5(O)CCN(C)C5=O)on4)c3)ccc2n1 : pIC50 is < 6.30

The measured pIC50 associated with CN1CC[C@@](O)(c2cc(-c3cccc(-c4ccc5cncn5c4)c3)no2)C1=O reads 6.30 to 7.00

pIC50 reported for this compound CN1CC[C@@](O)(c2cc(-c3cccc(-c4cc5[nH]ncc5cn4)c3)no2)C1=O : < 6.30

---

Please go through the items and note down their pIC50.
- Test system: p-IKKα levels in L363 (NIK translocated multiple myeloma) cells
- Experiment: Effect of compounds on p-IKKα levels in L363 cells (AlphaLISA SureFire Ultra)
- Assay type: cell-based
- Experimental setup: Homo sapiens, L-363; L363 cells, BAFF stimulated, MG132, 6 h; average of values; read-out: Assay 2 IC50
pIC50: −log10 of the molar value.

// field: pIC50; key: CN1CC[C@@](O)(c2cc(-c3cc(F)cc(-c4cc(C5CC5)c(N)c(C(N)=O)n4)c3)no2)C1=O ; value = > 7.00

Form field pIC50, entry [2H]c1nc(N)c2nc(-c3cccc(-c4cc([C@]5(O)CCN(C)C5=O)no4)c3)ccc2n1 : 6.30 to 7.00

For CN1CC[C@@](O)(c2cc(-c3cccc(-c4cc(-c5cncs5)cc(C(N)=O)n4)c3)no2)C1=O the compound record lists pIC50 as 6.30 to 7.00

Short answer for Cc1cc(-c2cccc(-c3cc([C@]4(O)CCN(C)C4=O)on3)c2)nc(C(N)=O)c1N : pIC50 was > 7.00

// COCCn1cc(-c2cc(C(N)=O)nc(-c3cccc(-c4cc([C@]5(O)CCN(C)C5=O)on4)c3)c2)cn1 : pIC50 value = 6.30 to 7.00

Lab book: pIC50 of CN1CCC(O)(c2cc(-c3cccc(-n4nc(C(N)=O)c5ccccc54)c3)on2)C1=O (racemic) noted as 6.30 to 7.00

According to the records, this compound Cc1ccc(-c2cccc(-c3cc([C@]4(O)CCN(C)C4=O)on3)c2)nc1C(N)=O displays pIC50 of < 6.30

---

Would you kindly list IC50 for each of these molecules?
- Test system: p-IKKα levels in L363 (NIK translocated multiple myeloma) cells
- Experiment: Effect of compounds on p-IKKα levels in L363 cells (AlphaLISA SureFire Ultra)
- Assay type: cell-based
- Experimental setup: Homo sapiens, L-363; L363 cells, BAFF stimulated, MG132, 6 h; average of values; read-out: Assay 2 IC50

Measured IC50, [2H]C1([2H])N(C)C(=O)[C@](O)(c2cc(-c3cccc(-c4nc(C(N)=O)n5c4CCCC5)c3)no2)C1([2H])[2H] : 100 to 500 nM

The value of IC50 measured for the molecule CN1CC[C@@](O)(c2cc(-c3cccc(-c4ccc(C(N)=O)o4)c3)no2)C1=O turned out to be > 501 nM

For COc1cc(-c2cccc(-c3cc([C@]4(O)CCN(C)C4=O)on3)c2)nc(C(N)=O)c1N the molecule record lists IC50 as < 100 nM

The recorded IC50 for entry Cc1nc(-c2cc(-c3cc([C@@]4(O)C(=O)N(C)CC4(F)F)on3)cc(F)c2F)nc2c(N)ncnc12 equals 100 to 500 nM

molecule CN1CC[C@@](O)(c2cc(-c3cccc(-c4cn5cccc(C(N)=O)c5n4)c3)no2)C1=O , IC50 observed: > 501 nM

Looking up CN1CCC(O)(c2cc(-c3cccc(-c4c[nH]c5ncccc45)c3)on2)C1=O (racemic) , I found its IC50 recorded as > 501 nM

The value of IC50 measured for the molecule CN1CC[C@@](O)(c2cc(-c3cccc(-c4ncc(NC5CC5)c(C(N)=O)n4)c3)no2)C1=O turned out to be < 100 nM

get_value(item= CN1CC[C@@](O)(c2cc(-c3cccc(-c4ccc5cnn(C)c5n4)c3)no2)C1=O , readout=IC50) returns > 501 nM

Lookup result for Cc1ncnc2ccc(-c3cccc(-c4cc([C@]5(O)CCN(C)C5=O)on4)c3)nc12 ; measured IC50: > 501 nM

Lookup result for CN1CC[C@@](O)(c2cc(-c3cccc(-c4cccc5c(=O)[nH]ccc45)n3)no2)C1=O ; measured IC50: > 501 nM

What the record says about [2H]c1nc(N)c2nc(-c3cccc(-c4ncc([C@]5(O)CCN(C)C5=O)o4)c3)ccc2n1 (single isomer, unassigned) : IC50 is > 501 nM

IC50 for [2H]c1nc(N)c2nc(-c3cccc(-n4cc([C@@]5(O)CCN(C)C5=O)nn4)c3)ccc2n1 is > 501 nM

The recorded IC50 for entry COc1cc(-c2cc([C@]3(O)CCN(C)C3=O)on2)cc(-c2cccc(C(N)=O)n2)c1 equals > 501 nM

Form field IC50, entry CN1CC[C@@](O)(c2cc(-c3cccc(-c4ncc(N[C@@H]5CCOC5)c(C(N)=O)n4)c3)no2)C1=O : < 100 nM

Record CN1CC[C@@](O)(c2cc(-c3ccc(-c4cccc(C(N)=O)n4)o3)no2)C1=O , field IC50: > 501 nM
